- studyTarget: cellular 11β-HSD1 (Rattus norvegicus)
- Construct: Enzyme activity is measured in the medium of primary cultures of rat hepatocytes 48 h after plating the cells; endogenous in cells; host or cells: primary hepatocytes of male Sprague-Dawley rats
- Sequence (P16232 whole entry): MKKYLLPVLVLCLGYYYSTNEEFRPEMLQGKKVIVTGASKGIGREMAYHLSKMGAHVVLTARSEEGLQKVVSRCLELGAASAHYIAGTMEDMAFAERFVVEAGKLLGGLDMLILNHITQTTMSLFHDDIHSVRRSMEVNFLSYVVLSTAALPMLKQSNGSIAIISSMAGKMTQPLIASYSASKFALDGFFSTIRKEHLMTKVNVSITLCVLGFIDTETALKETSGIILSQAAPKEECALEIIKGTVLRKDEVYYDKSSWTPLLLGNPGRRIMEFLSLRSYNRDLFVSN
- testMethodNotes: inhibition of cellular 11β-HSD1 activity in primary rat hepatocytes
- Format: cell-based
- measurementSetup: 2 h incubation
Attribute: inhibition at 1 µM
Report as a plain number; the unit % is understood.

# count of solved cases: 6
O=C(Nc1ccc(C(=O)N2CCC[C@@H]3CCCC[C@@H]32)cc1)c1ccc(F)cc1 ... 90
COc1cccc(NC(=O)Nc2ccc(C(=O)N3CCC[C@H]4CCCC[C@H]43)c(OC)c2)c1 ... 53
O=C(c1ccc(-c2ccccc2[N+](=O)[O-])o1)N1CCC[C@@H]2CCCC[C@@H]21 ... 76
O=C(NCc1ccc(F)cc1)N1CCc2cc(C(=O)N3CCC[C@H]4CCCC[C@H]43)ccc21 ... 84
COC(=O)Nc1ccc(C(=O)N2CC[C@H]3CCCC[C@H]3C2)c(OC)c1 ... 75
Cn1c(C(=O)N2CCC[C@@H]3CCCC[C@H]32)cc2ccccc21 (relative stereo) ... 49

Form field: reported inhibition at 1 µM of CC1=C(C(=O)N(C)CC23CC4CC(CC(C4)C2)C3)Cc2ccccc21
54

Name the recorded inhibition at 1 µM for COc1ccccc1CNC(=O)c1ccc(C(=O)N2CCC[C@@H]3CCCC[C@@H]32)cc1 .
71

Fill blank: measured inhibition at 1 µM of the compound CN(CC1CCCCC1)C(=O)c1ccc(NC(=O)c2ccc(F)cc2)cc1Cl is ____.
80

###

- studyTarget: human recombinant 11β-HSD1 (Homo sapiens, UniProt P28845)
- Construct: made in house; host or cells: Pichia pastoris (microsomal fraction)
- Sequence (P28845 whole entry): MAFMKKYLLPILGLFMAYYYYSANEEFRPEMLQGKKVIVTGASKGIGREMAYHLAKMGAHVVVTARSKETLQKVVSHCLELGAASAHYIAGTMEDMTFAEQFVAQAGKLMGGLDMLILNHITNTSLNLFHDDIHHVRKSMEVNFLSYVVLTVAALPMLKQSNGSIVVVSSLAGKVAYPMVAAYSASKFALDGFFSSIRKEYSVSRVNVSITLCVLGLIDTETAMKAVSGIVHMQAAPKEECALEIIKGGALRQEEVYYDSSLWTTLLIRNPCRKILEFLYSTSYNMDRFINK
- testMethodNotes: in vitro inhibition of human recombinant 11β-HSD1 (Pichia pastoris microsomes, [3H]cortisone to [3H]cortisol)
- Assay type: biochemical
- measurementSetup: recombinant human 11β-HSD1 microsomes, 500 nM cortisone mixture, NADPH, 90 min at 37° C.
- Procedure: The in vitro inhibition of human recombinant 11β-HSD1 is determined as follows: Recombinant human 11β-HSD1 is expressed in yeast Pichia pastoris. Cultures are grown at 30° C. for 3 days in the presence of methanol to induce enzyme expression. […] The production of [^3H]cortisol is quantitated upon separation from [^3H]cortisone by a C18 column on HPLC equipped with a radioactivity detector. […]
Entries annotated with measured pIC50
// returns pIC50 (minus log10 of molar concentration), number only

These solved cases illustrate the format of a correct answer.
CC1=C(C(=O)N(C)CC23CC4CC(CC(C4)C2)C3)Cc2ccccc21 [Example 8-6] ... 8.19
COc1cccc(NC(=O)Nc2ccc(C(=O)N3CCC[C@H]4CCCC[C@H]43)c(OC)c2)c1 [Example 13-4] ... 7.38
COC(=O)Nc1ccc(C(=O)N2CC[C@H]3CCCC[C@H]3C2)c(OC)c1 [Example 48-37] ... 6.11
COc1ccccc1CNC(=O)c1ccc(C(=O)N2CCC[C@@H]3CCCC[C@@H]32)cc1 [Example 23-47] ... 5.67
O=C(Nc1ccc(C(=O)N2CCC[C@@H]3CCCC[C@@H]32)cc1)c1ccc(F)cc1 [Example 11-13] ... 6.25

If you can, please state the reported pIC50 value of CN(CC1CCCCC1)C(=O)c1ccc(NC(=O)c2ccc(F)cc2)cc1Cl [Example 3-11] .
6.00

Please give the measured pIC50 for this compound: Cn1c(C(=O)N2CCC[C@@H]3CCCC[C@H]32)cc2ccccc21 (relative stereo) [Example 38]
6.74

Sample O=C(NCc1ccc(F)cc1)N1CCc2cc(C(=O)N3CCC[C@H]4CCCC[C@H]43)ccc21 [Example 33-21] — what was its pIC50?
6.58

Recorded pIC50 of O=C(c1ccc(-c2ccccc2[N+](=O)[O-])o1)N1CCC[C@@H]2CCCC[C@@H]21 [Example 35-15] , please.
8.11
